Readings of % of Enzyme inhibition (TDO) for the listed compounds
- STUDY_SYSTEM: purified human TDO enzyme (Homo sapiens, UniProt P48775)
- Construct: 6xHis (N); made in house; host or cells: Escherichia coli BL21 (DE3) (pET 28a vector)
- Sequence (P48775 whole entry): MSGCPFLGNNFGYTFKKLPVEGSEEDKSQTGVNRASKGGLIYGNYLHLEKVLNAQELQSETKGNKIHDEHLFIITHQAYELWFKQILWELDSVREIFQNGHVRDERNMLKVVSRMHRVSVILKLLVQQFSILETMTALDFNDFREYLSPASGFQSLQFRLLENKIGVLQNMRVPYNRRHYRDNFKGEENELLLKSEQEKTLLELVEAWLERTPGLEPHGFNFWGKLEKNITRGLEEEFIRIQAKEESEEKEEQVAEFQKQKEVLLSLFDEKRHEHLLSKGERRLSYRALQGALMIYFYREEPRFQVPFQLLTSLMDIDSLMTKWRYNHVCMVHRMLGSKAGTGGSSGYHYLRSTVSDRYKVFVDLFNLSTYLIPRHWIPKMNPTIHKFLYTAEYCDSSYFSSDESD
- PROCEDURE_DETAILS: TDO inhibition assay by the spectrometric method
- Format: biochemical
- RUN_PARAMETERS: spectrophotometric; 20 µM

| CHEMICAL_SMILES | STUDY_SYSTEM | RESULT_UNIT | % of Enzyme inhibition (TDO) |
| --- | --- | --- | --- |
| O=C(N/C(Cc1ccc(O)cc1)=N\O)c1n[nH]nc1-c1ccc(F)c(F)c1 | purified human TDO enzyme (Homo sapiens, UniProt P48775) | % | 42 |
| CCOC(=O)c1n[nH]nc1-c1ccc(Cl)c(Cl)c1 | purified human TDO enzyme (Homo sapiens, UniProt P48775) | % | 44 |
| CCOC(=O)c1n[nH]nc1-c1ccc(Cl)cc1 | purified human TDO enzyme (Homo sapiens, UniProt P48775) | % | 36 |
| NC(=O)c1n[nH]nc1-c1ccc(F)c(F)c1 | purified human TDO enzyme (Homo sapiens, UniProt P48775) | % | 33 |
| NC(=O)c1n[nH]nc1-c1ccc(Cl)c(Cl)c1 | purified human TDO enzyme (Homo sapiens, UniProt P48775) | % | 32 |

---

Readings of % of Secondary structural elements, Helix for the listed compounds
- STUDY_SYSTEM: IDO1 (Homo sapiens, UniProt P14902)
- Sequence (P14902 whole entry): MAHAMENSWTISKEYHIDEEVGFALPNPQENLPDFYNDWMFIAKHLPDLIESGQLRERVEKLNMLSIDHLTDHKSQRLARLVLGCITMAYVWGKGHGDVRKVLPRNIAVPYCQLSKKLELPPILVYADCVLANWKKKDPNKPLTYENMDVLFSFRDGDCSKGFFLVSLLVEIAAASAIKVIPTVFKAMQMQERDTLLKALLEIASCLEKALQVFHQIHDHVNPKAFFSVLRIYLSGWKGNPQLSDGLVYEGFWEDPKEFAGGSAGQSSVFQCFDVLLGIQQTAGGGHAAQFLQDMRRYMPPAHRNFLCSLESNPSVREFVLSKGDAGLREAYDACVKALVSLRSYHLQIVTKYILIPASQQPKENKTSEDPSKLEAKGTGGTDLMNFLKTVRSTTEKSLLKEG
- PROCEDURE_DETAILS: Circular dichroism analysis of IDO1 enzyme
- Design: made in house; host or cells: Escherichia coli M15 (pQE30 vector with pREP4 plasmid)
- RUN_PARAMETERS: compound 0.5 µM
- Procedure: The Circular Dichroism (CD) spectra of the IDO1 enzyme in the absence or presence of compounds were recorded with a Jasco-810-spectropolarimeter according to the reported procedure[37],[38]. […] Spectra were recorded by varying the concentration of the compound (250 nM to 4 µM) using a 1 mL quartz cuvette of 1 cm path length with a Jasco J-1500 spectropolarimeter at 17 °C. […] The % of the secondary structures of the IDO1 enzyme was analyzed using the inbuilt software of the instrument.
MEASUREMENT_LABEL: % of Secondary structural elements, Helix (%)

| CHEMICAL_SMILES | RESULT_UNIT | EXPERIMENTAL_VALUE |
| --- | --- | --- |
| CCOC(=O)c1n[nH]nc1-c1ccc(F)c(F)c1 | % | 28.7 |
| O=C(N/C(Cc1ccc(O)cc1)=N\O)c1n[nH]nc1-c1ccc(F)c(F)c1 | % | 28 |
| NC(=O)c1n[nH]nc1-c1ccc(F)c(F)c1 | % | 29.4 |
